- Tested on: P. aeruginosa CQ4924
- METHOD_NOTES: Broth microdilution MIC, glycosides with or without polymyxins
- Type: cell-based, Pseudomonas aeruginosa
- EXPERIMENTAL_CONTEXT: Cpd conc. 3.125 μg/mL; strain H
MEASURED_QUANTITY: MIC of colistin in combination with the compound (µg/mL)
One number for each entry, in µg/mL.

In [3]: df
Out[3]:
                                   molecule  measured
0  CCCCCCCCCCCCO[C@H]1C[C@H](O)[C@@H](O)[C@H](C)O1 [Compound 3]       0.5

Then there is this molecule:
In one line, give reported MIC of colistin in combination with the compound of the entry CCCCCCCCCCCC[C@H]1O[C@H](C)C[C@H](O)[C@H]1O [Compound 5] .
0.5
